Listed below: EC50 values for each entry.
Target: human mAChRM1 (Homo sapiens)
Construct: host or cells: CHO-K1
Sequence (P11229 1-460): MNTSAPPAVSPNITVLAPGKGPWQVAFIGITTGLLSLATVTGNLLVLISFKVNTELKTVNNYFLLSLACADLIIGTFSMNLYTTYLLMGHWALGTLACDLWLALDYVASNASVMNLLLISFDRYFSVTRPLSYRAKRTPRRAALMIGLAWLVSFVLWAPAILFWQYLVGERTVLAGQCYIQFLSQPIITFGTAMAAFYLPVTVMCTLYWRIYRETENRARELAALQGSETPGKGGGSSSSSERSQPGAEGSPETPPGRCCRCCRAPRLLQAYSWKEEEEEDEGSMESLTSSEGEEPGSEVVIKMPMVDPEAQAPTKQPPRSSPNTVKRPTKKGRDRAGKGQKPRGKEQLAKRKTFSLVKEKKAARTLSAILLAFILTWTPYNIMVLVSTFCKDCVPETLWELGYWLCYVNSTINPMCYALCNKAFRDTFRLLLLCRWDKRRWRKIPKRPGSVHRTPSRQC
Test: mAChR M1 cell-based functional assay (calcium mobilization), positive allosteric modulator activity: increase in the EC20 acetylcholine response
Details: increase in the EC20 acetylcholine response, read-out: PAM Activity Human M1 EC50
Express the result in nM but write the number alone.

Answered examples (5):
>>> print(df.to_string())
                                   compound  unit_of_measurement  observed_value
0  Cn1cc2c(-c3cc(F)c(CN4Cc5cccc(F)c5C4=O)c(F)c3)ccc(C3(O)COC3)c2n1                   nM             118
1  CN(C)c1cc(-c2ccc(C(C)(C)O)c3nn(C)cc23)cc(F)c1CN1Cc2ncccc2C1=O                   nM            3870
2  Cn1cc2c(-c3ccc(CN4Cc5cccnc5C4=O)cc3)ccc(C(C)(C)O)c2n1                   nM             825
3  Cn1cc2c(-c3cc(F)c(CN4Cc5ncccc5C4=O)c(F)c3)ccc(C(C)(C)O)c2n1                   nM              59
4  C[C@@H](c1c(F)cc(-c2ccc(C(C)(C)O)c3nn(C)cc23)cc1F)N1Cc2ncccc2C1=O                   nM            1120

Read the next record carefully.
Task: Query EC50 for [2H]C([2H])([2H])n1cc2c(-c3cc(C)c(CN4Cc5ncccc5C4=O)c(F)c3)ccc(C(C)(C)O)c2n1 (single isomer, unassigned)
Result: 81

----------
Biological target: human mAChRM1 (Homo sapiens)
Construct: host or cells: CHO-K1
Assay: mAChR M1 cell-based functional assay (calcium mobilization), positive allosteric modulator activity: increase in the EC20 acetylcholine response
Conditions: increase in the EC20 acetylcholine response, read-out: PAM Activity Human M1 EC50
Description: Chinese hamster ovary (CHO-K1) cells stably expressing rat (r)M1 were purchased from the American Type Culture Collection and cultured according to their indicated protocol. […] Calcium flux was measured using the Functional Drug Screening System (FDSS) 6000 (Hamamatsu Corporation, Tokyo, Japan) as an increase in the fluorescent static ratio. […] Agonist activity was analyzed as a concentration-dependent increase in calcium mobilization upon compound addition. […]
Listed below: log10 of EC50 values for each entry.
In our notation, the value equals log10 of EC50 in nM.

Answered examples (5):
>>> df
                                   compound  observed_value
0  CCC(O)(CC)c1ccc(-c2cc(C)c(CN3Cc4ncccc4C3=O)c(F)c2)c2cn(C)nc12 [Compound 55]            3.43
1  Cn1cc2c(-c3ccc(CN4Cc5cccnc5C4=O)c(F)c3)ccc(C(C)(C)O)c2n1 [Compound 130]            2.40
2  Cn1cc2cc(-c3cc(F)c(CN4Cc5ncccc5C4=O)c(F)c3)cc(C(C)(C)O)c2n1 [Compound 33]            2.47
3  Cn1cc(-c2cc(F)c(CN3Cc4ncccc4C3=O)c(F)c2)c2ccc(C(C)(C)O)cc21 [Compound 40]            3.34
4  [2H]C1([2H])c2ncccc2C(=O)N1Cc1c(Cl)cc(-c2ccc(C(C)(C)O)c3nn(C)cc23)cc1C1CC1 [Compound 150]            2.56

Task: For human mAChRM1 (Homo sapiens), give log10 of EC50 of the listed compound: C[C@H](c1c(F)cc(-c2ccc(C(C)(C)O)c3nn(C)cc23)cc1F)N1Cc2ncccc2C1=O [Compound 94]
Result: 3.10

Task: For human mAChRM1 (Homo sapiens), give log10 of EC50 of the listed compound: CC(C)(O)c1ccc(-c2ccc(CN3Cc4cccnc4C3=O)cc2)cc1 [Compound 128]
Result: 3.85

Task: For human mAChRM1 (Homo sapiens), give log10 of EC50 of the listed compound: Cn1cc2c(-c3ccc(CN4Cc5ncccc5C4=O)c(F)c3)ccc(C(C)(C)O)c2n1 [Compound 57]
Result: 2.26

Task: For human mAChRM1 (Homo sapiens), give log10 of EC50 of the listed compound: Cn1cc2c(-c3cc(F)c(CN4Cc5cccnc5C4=O)c(N4CCC4)c3)ccc(C(C)(C)O)c2n1 [Compound 135]
Result: 3.01

Task: For human mAChRM1 (Homo sapiens), give log10 of EC50 of the listed compound: CC(C)(O)c1ccc(-c2ccc(CN3Cc4cccnc4C3=O)c(F)c2)cc1 [Compound 127]
Result: 3.66

Task: For human mAChRM1 (Homo sapiens), give log10 of EC50 of the listed compound: Cc1cc(-c2ccc(C(C)(C)O)c3nn(C)cc23)cc(Cl)c1CN1Cc2ncccc2C1=O [Compound 65]
Result: 2.13

Data origin, for the record: patent US20260138978A1
